biological target: CYP26B1 (Homo sapiens); assay: Inhibition of CYP26B1-catalyzed tazarotenic acid sulfoxide formation; format: biochemical; settings: CYP26B1 IC50, probe tazarotenic acid
MEASURED_ENDPOINT: pIC50
The meaning of pIC50 here: minus log10 of the concentration in molar units.

Form field: pIC50 recorded for Clc1ccccc1C(c1ccccc1)(c1ccccc1)n1ccnc1 with CYP26B1 (Homo sapiens) (enter value) 7.30

* * *

target: CYP26B1 (Homo sapiens, UniProt Q9NR63); assay: Spectral binding determination, CYP26B1; details: Ks,unb CYP26B1, Ks corrected for nonspecific binding
Sequence (Q9NR63 whole entry): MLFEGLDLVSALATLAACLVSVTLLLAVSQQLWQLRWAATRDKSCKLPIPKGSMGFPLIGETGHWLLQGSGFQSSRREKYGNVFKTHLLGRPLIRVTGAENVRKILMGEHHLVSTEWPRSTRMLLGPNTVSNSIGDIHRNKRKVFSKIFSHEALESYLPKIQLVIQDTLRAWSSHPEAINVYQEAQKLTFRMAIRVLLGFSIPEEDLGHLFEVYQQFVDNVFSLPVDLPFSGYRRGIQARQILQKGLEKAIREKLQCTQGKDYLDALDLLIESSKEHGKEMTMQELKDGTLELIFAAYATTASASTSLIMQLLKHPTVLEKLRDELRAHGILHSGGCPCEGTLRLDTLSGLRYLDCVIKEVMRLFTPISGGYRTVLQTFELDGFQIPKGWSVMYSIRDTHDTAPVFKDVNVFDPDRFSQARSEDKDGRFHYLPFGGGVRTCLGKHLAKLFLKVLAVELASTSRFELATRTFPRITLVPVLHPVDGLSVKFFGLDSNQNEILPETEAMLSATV
MEASURED_ENDPOINT: pKd
The meaning of pKd here: minus log10 of the concentration in molar units.

Endpoint output: pKd of Clc1ccccc1C(c1ccccc1)(c1ccccc1)n1ccnc1 . Value? 7.61

* * *

target: CYP26A1 (Homo sapiens); experiment: Spectral binding determination, CYP26A1; details: Ks (spectral binding constant), CYP26A1, 500 nM protein; ± standard error
MEASURED_ENDPOINT: Kd (nM)
All answers are understood in nM, so give the number only.

Endpoint output: Kd of Clc1ccccc1C(c1ccccc1)(c1ccccc1)n1ccnc1 [Clotrimazole] . Value? 533

* * *

Biological target: CYP26A1 (Homo sapiens, UniProt O43174)
Sequence (O43174 1-497): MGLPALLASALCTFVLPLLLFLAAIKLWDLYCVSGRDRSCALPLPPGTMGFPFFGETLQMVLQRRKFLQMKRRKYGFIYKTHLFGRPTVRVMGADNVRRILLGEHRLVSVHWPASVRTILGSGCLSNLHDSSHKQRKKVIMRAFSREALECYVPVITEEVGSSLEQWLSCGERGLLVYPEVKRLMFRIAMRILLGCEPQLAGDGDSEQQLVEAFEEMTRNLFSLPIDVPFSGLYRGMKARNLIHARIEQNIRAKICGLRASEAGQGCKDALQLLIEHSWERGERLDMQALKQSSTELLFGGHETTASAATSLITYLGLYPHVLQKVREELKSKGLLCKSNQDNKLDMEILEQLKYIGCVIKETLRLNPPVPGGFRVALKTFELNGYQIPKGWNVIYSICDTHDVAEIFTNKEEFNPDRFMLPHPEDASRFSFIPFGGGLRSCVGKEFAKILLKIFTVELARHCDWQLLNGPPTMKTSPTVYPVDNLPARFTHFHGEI
Test: Inhibition of CYP26A1-catalyzed tazarotenic acid sulfoxide formation
Format: biochemical
Conditions: CYP26A1 IC50, tazarotenic acid, recombinant CYP26A1; probe tazarotenic acid sulfoxide formation; ± standard error
Exam item: assign YES to entries whose IC50 is below 2000 nM and NO to entries at or above 2000 nM. Note that a value of exactly 2000 nM receives NO.

Determine if O=C(c1ccc(OCCN2CCCCC2)cc1)c1c(-c2ccc(O)cc2)sc2cc(O)ccc12 shows IC50 strictly lower than 2000 nM. YES

Another: CC/C(=C(\c1ccccc1)c1ccc(OCCN(C)C)cc1)c1ccccc1 NO

Another: OC(Cn1cncn1)(Cn1cncn1)c1ccc(F)cc1F YES

Another: O=c1c(O)c(-c2ccc(O)c(O)c2)oc2cc(O)cc(O)c12 YES

Another: CN(CCOc1ccc(CC2SC(=O)NC2=O)cc1)c1ccccn1 (stereo not drawn) NO

Another: CCOc1nc2cccc(C(=O)O)c2n1Cc1ccc(-c2ccccc2-c2nnn[nH]2)cc1 NO

Another: Clc1ccccc1C(c1ccccc1)(c1ccccc1)n1ccnc1 YES

Another: CCc1ccc(CCOc2ccc(CC3SC(=O)NC3=O)cc2)nc1 (stereo not drawn) YES

Another: CCC(C)n1ncn(-c2ccc(N3CCN(c4ccc(OCC5COC(Cn6cncn6)(c6ccc(Cl)cc6Cl)O5)cc4)CC3)cc2)c1=O (stereo not drawn) YES

Another: CCOc1cc(CC(=O)N[C@@H](CC(C)C)c2ccccc2N2CCCCC2)ccc1C(=O)O [Repaglinide] NO

Another: CC(C)(O)c1ccccc1CC[C@@H](SCC1(CC(=O)O)CC1)c1cccc(/C=C/c2ccc3ccc(Cl)cc3n2)c1 YES

Another: COc1cc(C(=O)NS(=O)(=O)c2ccccc2C)ccc1Cc1cn(C)c2ccc(NC(=O)OC3CCCC3)cc12 YES
